Test system: salmon sperm DNA
Experiment: DNA intercalation assay (methyl green displacement method)
Format: binding
Settings: 1 and 10 μM, range over both doses
measurement type: percentage of methyl green dye replaced from its complex with DNA

Before answering, review these 4 worked examples.
{"compound": "COc1ccc(/C=C/c2cc(OC)c(OC)c(OC)c2)cc1OC [Compound 8, 3,3′,4,4’,5-pentamethoxy-trans-stilbene]", "result": "1.87–5.98%"}
{"compound": "CC[n+]1c(-c2ccccc2)c2cc(N)ccc2c2ccc(N)cc21 [EtBr, Ethidium Bromide, reference compound]", "result": "42.12–47.35%"}
{"compound": "COc1ccc(/C=C/c2cc(OC)c(OC)c(OC)c2)cc1 [Compound 7, 3,4,5,4′-tetramethoxy-trans-stilbene]", "result": "1.87–5.98%"}
{"compound": "COc1cccc2c1C(=O)c1c(O)c3c(c(O)c1C2=O)C[C@@](O)(C(=O)CO)C[C@@H]3O[C@H]1C[C@H](N)[C@H](O)[C@H](C)O1 [DOX, doxorubicin, reference compound]", "result": "41.62–45.52%"}

# input for lookup
Input line: For the compound shown here, COc1ccc(/C=C/c2cc(OC)c(OC)c(OC)c2)cc1Br , give the reported percentage of methyl green dye replaced from its complex with DNA.
Output line: 1.87–5.98%

* * *

System: Jurkat human acute T-cell leukaemia
Assay: MTT cell viability assay, Jurkat
Assay type: cell-based
Details: MTT test, 72 h of action, read-out: IC50, Tumour Cell Lines, Jurkat Human Acute T-Cell Leukaemia
Values of IC50 strictly less than 9 µM map to Y, and values of at least 9 µM map to N.

Input line: Below 9 µM on IC50? Entry COc1cc(Br)c(/C=C/c2cc(OC)c(OC)c(OC)c2)cc1OC
Output line: N

Input line: Identify whether the compound COc1ccc(/C=C/c2cc(OC)c(OC)c(OC)c2)cc1OC [Compound 8, 3,3′,4,4’,5-pentamethoxy-trans-stilbene] records IC50 below 9 µM.
Output line: Y

* * *

System: Jurkat human acute T-cell leukaemia
Assay: MTT cell viability assay, Jurkat
Format: cell-based
Details: MTT test, 72 h of action, read-out: IC50, Tumour Cell Lines, Jurkat Human Acute T-Cell Leukaemia
Entries and their pIC50
Please note pIC50 is a logarithmic value: minus log10 of concentration in mol/L. Answer with that number alone.

Look over these answered cases.
{"compound": "COc1ccc(/C=C/c2cc(OC)c(OC)c(OC)c2)cc1 [Compound 7, 3,4,5,4′-tetramethoxy-trans-stilbene]", "recorded number": 6.19}
{"compound": "COc1ccc(/C=C/c2cc(OC)c(OC)c(OC)c2)cc1Br [Compound 4]", "recorded number": 6.12}
{"compound": "COc1cc(OC)c(OC)cc1/C=C/c1ccc(OC)c(OC)c1 [Compound 10, 2,3’,4,4’,5-pentamethoxy-trans-stilbene]", "recorded number": 5.05}
{"compound": "COc1cc(/C=C/c2cc(Br)cc(Br)c2)cc(OC)c1OC [Compound 6]", "recorded number": 4.18}

Pending compound:
Input line: Name the reported pIC50 value associated with the compound COc1cc(/C=C/c2ccc(Br)cc2)cc(OC)c1OC [Compound 1]
Output line: 5.65
